System: SN12C
Experiment: NCI tumour cell line growth inhibition, 48 h
Active and inactive are the calls of the source. Cut-off read from the data, not from the text of the source: active = GI50 up to about 1.1 µM and inactive = higher.
Mark one answer only. Choices: active, inactive

Sample answers from the record:
>>> qualitative_label("COc1ccc(C(=O)C(C(=O)C(=O)NC2C3CC4CC(C3)CC2C4)c2ccc(OC)cc2)cc1 (stereo unspecified)")
"inactive"
>>> qualitative_label("CCN(CC)c1ccc(C(=C2C=CC(=[N+](CC)CC)C=C2)c2ccc(N(CC)CC)cc2)cc1")
"active"
>>> qualitative_label("CCCCCCCCCCCCCCCCCc1nc(Cl)nc(Cl)c1Cl")
"inactive"
>>> qualitative_label("Clc1ccc(/C=N/C23CC4CC(CC(C4)C2)C3)c(Cl)c1")
"inactive"
>>> qualitative_label("C/C(=N\\NC(=O)CC(=O)Nc1ccc(Cl)cc1)c1cc2ccccc2oc1=O")
"inactive"

Inquiry: I'd appreciate the recorded outcome for Cc1nc2ccc(F)cc2c2c1CCO2 from this test.
Reply text: inactive

Inquiry: I'd appreciate the recorded outcome for CCOC(CN(C)C(=O)Nc1ccc(Cl)c(Cl)c1)OCC from this test.
Reply text: inactive

Inquiry: I'd appreciate the recorded outcome for CCC(=O)OCN(C)c1nc(N(C)COC(=O)CC)nc(N(C)COC(=O)CC)n1 from this test.
Reply text: inactive

Inquiry: I'd appreciate the recorded outcome for COc1cc2nc(-c3cccs3)oc(=O)c2cc1OC from this test.
Reply text: inactive

Inquiry: I'd appreciate the recorded outcome for O=C(O)c1nc(-c2ccc(Cl)c(Cl)c2)nc2ccc(Cl)cc12 from this test.
Reply text: inactive

Inquiry: I'd appreciate the recorded outcome for NC(=O)c1cc([N+](=O)[O-])cc([N+](=O)[O-])c1 [NITROMIDE] from this test.
Reply text: inactive

----------
Tested on: K562
Assay: NCI tumour cell line growth inhibition, 48 h
Active and inactive are the calls of the source. Rule as the data show it: active = GI50 up to about 1.1 µM and inactive = higher.
Mark one answer only. Choices: True (active), False (inactive)

>>> qualitative_label("N#Cc1nnn(-c2ccc(Br)cc2)c1O")
"False"
>>> qualitative_label("C=C1c2nc3ccccc3n2C=C(c2ccccc2)N1c1ccccc1")
"False"
>>> qualitative_label("O=c1cc(-c2ccccc2F)[nH]c2ccc(N3CCCC3)cc12")
"True"
>>> qualitative_label("CN1c2ccccc2SC2C(c3ccccc3)=NOC21 (stereo not drawn)")
"False"
>>> qualitative_label("Oc1nc(-c2ccc3ccccc3c2)nc2ccccc12")
"False"

Inquiry: I'd appreciate the recorded outcome for CC1=C(C(=O)NCc2ccccc2)C(c2ccco2)C(C(=O)NCc2ccccc2)=C(C)N1 from this test.
Reply text: False

Inquiry: I'd appreciate the recorded outcome for O=C1CCCC[C@H]1[C@H]1CCC[C@@H]([C@H]2CCCCC2=O)C1=O from this test.
Reply text: False

Inquiry: I'd appreciate the recorded outcome for CCCCCCc1cc2cc(-c3csc(-c4ccc(OC)cc4)n3)c(=O)oc2cc1O from this test.
Reply text: False

Inquiry: I'd appreciate the recorded outcome for COc1cc(-c2cc(O)c3cc4c(cc3n2)OCO4)cc(OC)c1OC from this test.
Reply text: False

Inquiry: I'd appreciate the recorded outcome for O=C(N/C(=C\c1ccc(Br)cc1)c1nc2ccccc2[nH]1)c1ccccc1 from this test.
Reply text: False

Inquiry: I'd appreciate the recorded outcome for CSc1ccc2c(cc1=O)[C@@H](NC(=O)c1cccc([N+](=O)[O-])c1)CCc1cc(O)c(O)c(O)c1-2 from this test.
Reply text: False

Inquiry: I'd appreciate the recorded outcome for COc1c(CCl)cc(-c2cc(=O)c3ccccc3s2)cc1CCl from this test.
Reply text: False

Inquiry: I'd appreciate the recorded outcome for COC(=O)CCC(NC(=S)N/N=C(\C)c1nccs1)C(=O)OC (stereo not drawn) from this test.
Reply text: False

Inquiry: I'd appreciate the recorded outcome for CCCCCCCCCCCCCCCCCCNc1ccn(C2OC(COP(=O)(O)OCC3OC(n4ccc(N)nc4=O)C(O)C3O)C(O)C2O)c(=O)n1 (stereo not drawn) from this test.
Reply text: False

Inquiry: I'd appreciate the recorded outcome for N#C[C-](C#N)[n+]1ccc(Cl)cc1 from this test.
Reply text: False

Inquiry: I'd appreciate the recorded outcome for O=C1CN=C(C[N+](=O)[O-])c2ccccc21 from this test.
Reply text: False

Inquiry: I'd appreciate the recorded outcome for Sc1ncnc2c1ncn2Cc1ccco1 from this test.
Reply text: False

Inquiry: I'd appreciate the recorded outcome for CC(=O)OCc1ccc(-c2nc(C#N)c(N)o2)o1 from this test.
Reply text: False

Inquiry: I'd appreciate the recorded outcome for N=C(N)NS(=O)(=O)c1ccc(NCc2c3ccccc3nc3ccccc23)cc1 from this test.
Reply text: False

Inquiry: I'd appreciate the recorded outcome for O=[N+]([O-])C1C2C=CC(C2)[C@H]1c1ccc(Cl)cc1Cl (stereo partly drawn) from this test.
Reply text: False

Inquiry: I'd appreciate the recorded outcome for O=C1Cc2c([nH]c3cc(Br)ccc23)-c2ccccc2N1 from this test.
Reply text: False

Inquiry: I'd appreciate the recorded outcome for CCOC(CN(C)C(=O)Nc1ccc(Cl)c(Cl)c1)OCC from this test.
Reply text: False

Inquiry: I'd appreciate the recorded outcome for COc1cc(OC2OC(CO)C(O)C(O)C2O)c2c(O)c3c(=O)cc(C)oc3cc2c1 (stereo not drawn) from this test.
Reply text: False

----------
System: UO-31
Assay: NCI tumour cell line growth inhibition, 48 h
Active and inactive are the calls of the source. No stated cut-off is given here; in the data, active = GI50 up to about 1.1 µM and inactive = higher.
The entries below come with measured GI50 values attached.

The examples below pair each entry with its known result.
>>> result("O=S(=O)(N/N=C1\\CC2CCC1C2)c1ccccc1 (stereo unspecified)")
"> 100 µM (inactive)"
>>> result("N#CC1C(=O)C(=O)N(c2ccccc2)C1=O (stereo unspecified)")
"> 100 µM (inactive)"
>>> result("CCC1(C)C=Cc2c(cc(OC)c3c(=O)c4ccccc4n(C)c23)O1 (stereo unspecified)")
"1.15 µM (inactive)"

GI50 recorded for this compound, CC(=O)N1N=C(c2cc(C)ccc2O)CC1c1cccc(Cl)c1 (stereo unspecified) , is 17.4 µM (inactive)

GI50 recorded for this compound, Cc1ccc2c(O)cc(-c3sccc3C)nc2n1 , is 1.52 µM (inactive)

----------
System: K562
Experiment: NCI tumour cell line growth inhibition, 48 h
Calls of active or inactive are those of the source. Cut-off read from the data, not from the text of the source: active = GI50 up to about 1.1 µM and inactive = higher.
The entries below come with measured GI50 values attached.

The examples below pair each entry with its known result.
>>> result("CC(C)CC1[C@@H](OCc2ccccc2)COS(=O)(=O)N1Cc1ccccc1 (stereo partly specified)")
"50.9 µM (inactive)"
>>> result("O=S(=O)(O)c1ccc2c(/N=N/c3cccc4ccccc34)c(O)c(S(=O)(=O)O)cc2c1")
"> 100 µM (inactive)"
>>> result("O=C(/C=C/c1ccccc1)NNC(=O)c1c(Cl)c(Cl)c(Cl)c(Cl)c1-c1nc2ccccc2[nH]1")
"25.2 µM (inactive)"
>>> result("C/C(=N\\NC(=O)CC(=O)Nc1ccc(Cl)cc1)c1cc2ccccc2oc1=O")
"> 100 µM (inactive)"
>>> result("C/C(Cl)=N\\OC(=O)Nc1ccc(C)cc1")
"9.91 µM (inactive)"

Please examine the following record next.
GI50 recorded for this molecule, CCCCOC(C)(C)/C=C/C(O)[C@](C)(O)[C@H]1[C@H](O)C[C@@]2(C)[C@@H]3CCc4c(cc(OC5OC(CO)C(O)C(O)C5O)c(O)c4C)C3(C)C(=O)C[C@]12C (stereo partly specified) , is > 100 µM (inactive)

----------
System: SK-MEL-5
Assay: NCI tumour cell line growth inhibition, 48 h
Calls of active or inactive are those of the source. Cut-off read from the data, not from the text of the source: active = GI50 up to about 1.1 µM and inactive = higher.
Mark one answer only. Choices: active, inactive

Sample answers from the record:
>>> qualitative_label("CC1(C)CCC2=C(O1)c1ccccc1C(=O)C2=O")
"active"
>>> qualitative_label("CC(=O)OC1C(O)COC(O[C@H]2CC[C@]34C[C@]35CC[C@]3(C)C([C@@]6(C)CC[C@@H](C(C)(C)O)O6)[C@@H](O)C[C@@]3(C)C5C[C@H](OC3OCC(O)C(O)C3O)[C@H]4C2(C)C)C1OC1OCC(O)C(O)C1O (some centres undefined)")
"inactive"

Inquiry: I'd appreciate the recorded outcome for COc1ccc(C(=O)C(C(=O)C(=O)NC2C3CC4CC(C3)CC2C4)c2ccc(OC)cc2)cc1 (centres undefined) from this test.
Reply text: inactive

Inquiry: I'd appreciate the recorded outcome for CC(=O)C(C(C)=O)[C@H]1OC(C)(C)O[C@H]1[C@H]1COC(C)(C)O1 from this test.
Reply text: inactive

Inquiry: I'd appreciate the recorded outcome for CC1=C(C(=O)CC(=O)C(=O)Nc2cccc(Cl)c2C)Sc2ccccc2N1 from this test.
Reply text: inactive

Inquiry: I'd appreciate the recorded outcome for N#C/C(=C\c1cccc(O)c1)C(N)=O from this test.
Reply text: inactive

Inquiry: I'd appreciate the recorded outcome for CN(C)CC/C(=N\Nc1ccc(Cl)c(Cl)c1)c1ccccc1 from this test.
Reply text: inactive

Inquiry: I'd appreciate the recorded outcome for Nc1c2c(nc3cc(F)c(F)cc13)CCC2 from this test.
Reply text: inactive

Inquiry: I'd appreciate the recorded outcome for CCN(CC)c1ccc(C(=C2C=CC(=[N+](CC)CC)C=C2)c2ccc(N(CC)CC)cc2)cc1 from this test.
Reply text: active
